Each recorded value in this set is attributed to PubChem BioAssay AID1963450.

Documented IC50 across a set of compounds
system: 556581-035-R-J1-PDC complex spheroid growth; test: Anticancer human tumor 556581-035-R-J1-PDC patient-derived ovarian carcinoma cell line growth inhibition [Asc]; conditions: curve of first compound; second compound 0.0316 µM

Look over these answered cases.
[[record]]
compound = "C=CC(=O)N1CCN(c2nc(=O)n(-c3c(C)ccnc3C(C)C)c3nc(-c4c(O)cccc4F)c(F)cc23)C(C)C1 (stereo not drawn) + CNC(C)C(=O)NC1CN(S(=O)(=O)c2cccc(S(=O)(=O)N3CCC4CCC(C(=O)NC(c5ccccc5)c5ccccc5)N4C(=O)C(NC(=O)C(C)NC)C3)c2)CCC2CCC(C(=O)NC(c3ccccc3)c3ccccc3)N2C1=O"
quantity_kind = "IC50"
data_value = "> 10000 nM"

[[record]]
compound = "Cn1ncnc1[C@H]1c2n[nH]c(=O)c3cc(F)cc(c23)N[C@@H]1c1ccc(F)cc1 + CNC(C)C(=O)NC1CN(S(=O)(=O)c2cccc(S(=O)(=O)N3CCC4CCC(C(=O)NC(c5ccccc5)c5ccccc5)N4C(=O)C(NC(=O)C(C)NC)C3)c2)CCC2CCC(C(=O)NC(c3ccccc3)c3ccccc3)N2C1=O"
quantity_kind = "IC50"
data_value = "> 100 nM"


Continue with the compound presented below.
Problem: Determine from records and report IC50 for Cc1nc(N2CCC3(CC2)COC(C)C3N)c(CO)nc1Sc1ccnc(N)c1Cl (stereo not drawn) + CNC(C)C(=O)NC1CN(S(=O)(=O)c2cccc(S(=O)(=O)N3CCC4CCC(C(=O)NC(c5ccccc5)c5ccccc5)N4C(=O)C(NC(=O)C(C)NC)C3)c2)CCC2CCC(C(=O)NC(c3ccccc3)c3ccccc3)N2C1=O
Solution: 1960 nM

###

test system: 556581-035-R-J1-PDC complex spheroid growth; experiment: Anticancer human tumor 556581-035-R-J1-PDC cell line growth inhibition [Asc]; conditions: curve of first compound; second compound 10 µM;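 note: spheroids exposed to agents for 7 days before viability read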
Quantity Kind: pIC50
pIC50 here is simply -log10 of the concentration when that concentration is written in mol/L.

[[record]]
compound = "CCN1C(C(=O)NC23CCC(C(=O)O)(CC2)CC3)C(c2cccc(Cl)c2F)C2(C(=O)Nc3cc(Cl)ccc32)C12CCCCC2 (stereo not given) + Cc1c(S(C)(=O)=O)c(-c2cc(F)cc(N3CCN(c4ccc(NS(=O)(=O)c5ccc(NC(CCN6CCC(C(=O)OCCCP(=O)(O)O)CC6)CSc6ccccc6)c(S(=O)(=O)C(F)(F)F)c5)cc4)CC3)c2)c(-c2ccc(Cl)cc2)n1C(C)C"
experimental_target = "556581-035-R-J1-PDC complex spheroid growth"
quantity_kind = "pIC50"
data_value = 6.09

[[record]]
compound = "C=C(F)C(=O)N1CCN(c2nc(OCC3CCCN3C)nc3c2CCN(c2cccc4cccc(Cl)c24)C3)CC1CC#N (stereo not given) + Cc1c(S(C)(=O)=O)c(-c2cc(F)cc(N3CCN(c4ccc(NS(=O)(=O)c5ccc(NC(CCN6CCC(C(=O)OCCCP(=O)(O)O)CC6)CSc6ccccc6)c(S(=O)(=O)C(F)(F)F)c5)cc4)CC3)c2)c(-c2ccc(Cl)cc2)n1C(C)C"
experimental_target = "556581-035-R-J1-PDC complex spheroid growth"
quantity_kind = "pIC50"
data_value = 6.00

[[record]]
compound = "NC(=O)C(=Cn1cnc(-c2cc(C(F)(F)F)cc(C(F)(F)F)c2)n1)c1cncnc1 + Cc1c(S(C)(=O)=O)c(-c2cc(F)cc(N3CCN(c4ccc(NS(=O)(=O)c5ccc(NC(CCN6CCC(C(=O)OCCCP(=O)(O)O)CC6)CSc6ccccc6)c(S(=O)(=O)C(F)(F)F)c5)cc4)CC3)c2)c(-c2ccc(Cl)cc2)n1C(C)C"
experimental_target = "556581-035-R-J1-PDC complex spheroid growth"
quantity_kind = "pIC50"
data_value = 7.06

[[record]]
compound = "C#Cc1c(F)ccc2cc(O)cc(-c3ncc4c(N5CC6CCC(C5)N6)nc(OCC56CCCN5CC(F)C6)nc4c3F)c12 (stereo not given) + Cc1c(S(C)(=O)=O)c(-c2cc(F)cc(N3CCN(c4ccc(NS(=O)(=O)c5ccc(NC(CCN6CCC(C(=O)OCCCP(=O)(O)O)CC6)CSc6ccccc6)c(S(=O)(=O)C(F)(F)F)c5)cc4)CC3)c2)c(-c2ccc(Cl)cc2)n1C(C)C"
experimental_target = "556581-035-R-J1-PDC complex spheroid growth"
quantity_kind = "pIC50"
data_value = 5.92


Problem: Give the reported value of pIC50 for this record: CCN1CCN(Cc2ccc(Nc3ncc(F)c(-c4cc(F)c5nc(C)n(C(C)C)c5c4)n3)nc2)CC1 + Cc1c(S(C)(=O)=O)c(-c2cc(F)cc(N3CCN(c4ccc(NS(=O)(=O)c5ccc(NC(CCN6CCC(C(=O)OCCCP(=O)(O)O)CC6)CSc6ccccc6)c(S(=O)(=O)C(F)(F)F)c5)cc4)CC3)c2)c(-c2ccc(Cl)cc2)n1C(C)C
Solution: 6.31

Problem: Name the recorded pIC50 of the item Cc1nc(N2CCC3(CC2)COC(C)C3N)c(CO)nc1Sc1ccnc(N)c1Cl (stereo not given) + Cc1c(S(C)(=O)=O)c(-c2cc(F)cc(N3CCN(c4ccc(NS(=O)(=O)c5ccc(NC(CCN6CCC(C(=O)OCCCP(=O)(O)O)CC6)CSc6ccccc6)c(S(=O)(=O)C(F)(F)F)c5)cc4)CC3)c2)c(-c2ccc(Cl)cc2)n1C(C)C in your answer.
Solution: 7.85

###

system: 556581-035-R-J1-PDC complex spheroid growth; assay: Anticancer human tumor 556581-035-R-J1-PDC cell line growth inhibition [Asc]; details: curve of first compound; second compound 0.316 µM;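 note: spheroids exposed to agents for 7 days before viability read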
Quantity Kind: pIC50
The value called pIC50 is obtained by taking minus log10 of the concentration in mol/L.

[[record]]
molecule = "O=C(c1ccc(F)c(F)c1Nc1ccc(I)cc1F)N1CC(O)([C@@H]2CCCCN2)C1 + CNC(C)C(=O)NC1CN(S(=O)(=O)c2cccc(S(=O)(=O)N3CCC4CCC(C(=O)NC(c5ccccc5)c5ccccc5)N4C(=O)C(NC(=O)C(C)NC)C3)c2)CCC2CCC(C(=O)NC(c3ccccc3)c3ccccc3)N2C1=O"
quantity_kind = "pIC50"
data_value = 6.74


# ---- query molecule ----
Problem: // fetch pIC50; item: CCN1CCN(Cc2ccc(Nc3ncc(F)c(-c4cc(F)c5nc(C)n(C(C)C)c5c4)n3)nc2)CC1 + CNC(C)C(=O)NC1CN(S(=O)(=O)c2cccc(S(=O)(=O)N3CCC4CCC(C(=O)NC(c5ccccc5)c5ccccc5)N4C(=O)C(NC(=O)C(C)NC)C3)c2)CCC2CCC(C(=O)NC(c3ccccc3)c3ccccc3)N2C1=O ; system: 556581-035-R-J1-PDC complex spheroid growth
Solution: 6.50

###

Quick reference for IC50 among some compounds
tested on: 556581-035-R-J1-PDC complex spheroid growth; test: Anticancer human tumor 556581-035-R-J1-PDC cell line growth inhibition [Asc]; conditions: curve of first compound; second compound 0.316 µM;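 note: spheroids exposed to agents for 7 days before viability read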

[[record]]
compound = "CCN1C(C(=O)NC23CCC(C(=O)O)(CC2)CC3)C(c2cccc(Cl)c2F)C2(C(=O)Nc3cc(Cl)ccc32)C12CCCCC2 (configuration not stated) + Cc1c(S(C)(=O)=O)c(-c2cc(F)cc(N3CCN(c4ccc(NS(=O)(=O)c5ccc(NC(CCN6CCC(C(=O)OCCCP(=O)(O)O)CC6)CSc6ccccc6)c(S(=O)(=O)C(F)(F)F)c5)cc4)CC3)c2)c(-c2ccc(Cl)cc2)n1C(C)C"
experimental_target = "556581-035-R-J1-PDC complex spheroid growth"
quantity_kind = "IC50"
data_value = "> 3 µM"


Problem: Hello, please tell me recorded IC50 for this one: C=CC(=O)N1CCN(c2nc(=O)n(-c3c(C)ccnc3C(C)C)c3nc(-c4c(O)cccc4F)c(F)cc23)C(C)C1 (configuration not stated) + Cc1c(S(C)(=O)=O)c(-c2cc(F)cc(N3CCN(c4ccc(NS(=O)(=O)c5ccc(NC(CCN6CCC(C(=O)OCCCP(=O)(O)O)CC6)CSc6ccccc6)c(S(=O)(=O)C(F)(F)F)c5)cc4)CC3)c2)c(-c2ccc(Cl)cc2)n1C(C)C
Solution: > 10 µM

###

Tested on: 556581-035-R-J1-PDC complex spheroid growth
Assay: Anticancer human tumor 556581-035-R-J1-PDC cell line growth inhibition [Asc];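 note: spheroids exposed to agents for 7 days before viability read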
Settings: second compound 10 µM; first compound 0.01 µM; stronger effect = lower value
Text: Multicellular complex tumor spheroid response to apoptosis pathway targeting inhibitors Alrizomadlin, Pelcitoclax, and Dasminapant in combination with a variety of drugs and investigational agents in selected tumor cell lines […] Compounds. […] If the clinical Cmax for an agent had not been determined, the highest concentration tested was 10 microM. […]
viability, T/C overview
Give your result in % as a bare value.

[[record]]
compound = "CCN1CCN(Cc2ccc(Nc3ncc(F)c(-c4cc(F)c5nc(C)n(C(C)C)c5c4)n3)nc2)CC1 + Cc1c(S(C)(=O)=O)c(-c2cc(F)cc(N3CCN(c4ccc(NS(=O)(=O)c5ccc(NC(CCN6CCC(C(=O)OCCCP(=O)(O)O)CC6)CSc6ccccc6)c(S(=O)(=O)C(F)(F)F)c5)cc4)CC3)c2)c(-c2ccc(Cl)cc2)n1C(C)C"
quantity_kind = "viability, T/C"
result_units = "%"
data_value = 69.7


Problem: Write down the reported viability, T/C (system: 556581-035-R-J1-PDC complex spheroid growth) of COc1c(OCCCN2CCOCC2)ccc2c3n(c(=NC(=O)c4cnc(N)nc4)nc12)CCN3 + Cc1c(S(C)(=O)=O)c(-c2cc(F)cc(N3CCN(c4ccc(NS(=O)(=O)c5ccc(NC(CCN6CCC(C(=O)OCCCP(=O)(O)O)CC6)CSc6ccccc6)c(S(=O)(=O)C(F)(F)F)c5)cc4)CC3)c2)c(-c2ccc(Cl)cc2)n1C(C)C
Solution: 57.3

Problem: Check 556581-035-R-J1-PDC complex spheroid growth data and give viability, T/C for Cn1ncnc1[C@H]1c2n[nH]c(=O)c3cc(F)cc(c23)N[C@@H]1c1ccc(F)cc1 + Cc1c(S(C)(=O)=O)c(-c2cc(F)cc(N3CCN(c4ccc(NS(=O)(=O)c5ccc(NC(CCN6CCC(C(=O)OCCCP(=O)(O)O)CC6)CSc6ccccc6)c(S(=O)(=O)C(F)(F)F)c5)cc4)CC3)c2)c(-c2ccc(Cl)cc2)n1C(C)C .
Solution: 64.5
